# credit: PubChem BioAssay (Tox21)

- assay_summary: Nuclear factor erythroid 2-related factor 2/antioxidant responsive element (Nrf2/ARE) small molecule agonists: luciferase reporter gene qHTS assay in human keratinocytes (AID 1919969); note: nearly all actives have a fitted effect of over 35% in size; note: potency is the fitted concentration of half-maximal effect
- experimental_context: KeratinoSens HaCaT ARE-luciferase, luminescence, 24 h; series mostly up to 92.4 µM
- Text: National Center for Advancing Translational Sciences [NCATS] Division of Preclinical Innovation [DPI] U.S. Environmental Protection Agency [EPA] National Institutes of Environmental Health Sciences [NIEHS] National Toxicology Program [NTP] […] Oxidative stress has been implicated in the pathogenesis of a variety of diseases ranging from cancer to neurodegeneration. […] The activation of the report gene under culture conditions can be detected by ONE-Glo Luciferase Assay System (Promega, Madison, WI). […]
Inconclusive results are not listed. Calls of active or inactive are those of the source. Calls come from the whole dose curve.
endpoint: Potency

Solved entries:
COc1ccc2c(c1)c1c3n2CCN(C)C3=NCC1 ... inactive
CC1=C(/C=C/C(C)=C/C=C/C(C)=C\C=O)C(C)(C)CCC1 ... 64.9 µM (active)
CC(O)C#CC(C)O (stereo not given) ... 21.5 µM (active)
CCCCCCOC(=O)NC(=N)c1ccc(NCc2nc3cc(C(=O)N(CCC(=O)OCC)c4ccccn4)ccc3n2C)cc1 ... inactive
COc1c2occc2c(OC)c2c(=O)cc(C)oc12 ... inactive

Recall and state the measured Potency for CC(C)N(C)C .
inactive

Recall and state the measured Potency for CC1=C(CC(=O)O)c2cc(F)ccc2/C1=C\c1ccc(S(C)(=O)=O)cc1 .
inactive

Recall and state the measured Potency for CCc1ncc(C)[nH]1 .
inactive

Recall and state the measured Potency for CC1CCC(=O)C1=O (stereo not given) .
inactive

Recall and state the measured Potency for CC[N+](C)(CC)CC .
inactive

Recall and state the measured Potency for OCc1c[nH]c2ccccc12 .
61.1 µM (active)

Recall and state the measured Potency for Nc1nnc(-c2ccc([N+](=O)[O-])o2)o1 .
61.1 µM (active)

Recall and state the measured Potency for c1coc(Cn2cccc2)c1 .
inactive

Recall and state the measured Potency for CCCCCCCCCCCCC1CO1 (stereo not given) .
inactive

Recall and state the measured Potency for CC(C)c1ccc2ncccc2c1 .
inactive

Recall and state the measured Potency for N[C@@H]1CONC1=O .
inactive

Recall and state the measured Potency for CCCC(CC)CCCCCCCN (stereo not given) .
inactive

Recall and state the measured Potency for COc1ccccc1OCC1CNC(=O)O1 (stereo not given) .
inactive

---

- assay_summary: p53 small molecule agonists, cell-based qHTS assay with human liver microsomes: qHTS cell viability counter screen (AID 1963579); note: nearly all actives have a fitted effect of over 45% in size
- experimental_context: p53RE-bla HCT-116 viability, ATP luminescence, 16 h, HLM; series mostly up to 66 µM
Results filed as inconclusive are left out. Active and inactive are the calls of the source. Calls come from the whole dose curve.
Pick from active, inactive when you respond.

What was the test verdict on CCCCOC(=O)CCCCC(=O)OCCCC ?
inactive

What was the test verdict on CCCCc1oc2ccc(NS(C)(=O)=O)cc2c1C(=O)c1ccc(OCCCN(CCCC)CCCC)cc1 ?
inactive

What was the test verdict on CC(=O)CC(=O)c1ccccc1 ?
inactive

What was the test verdict on Cc1ccc(C(=O)C(C)CN2CCCCC2)cc1 (configuration not stated) ?
inactive

What was the test verdict on CC(C)=CC=O ?
inactive

What was the test verdict on CN1C(C)(C)CC(O)CC1(C)C ?
inactive

What was the test verdict on CCCCCCCCCCCCSCCOCCO ?
inactive

What was the test verdict on CC(C)(C)CC(C)(C)c1ccc(OCCO)cc1 ?
inactive

What was the test verdict on Cc1ccccc1N=Nc1ccc(N=Nc2c(O)ccc3ccccc23)c(C)c1 ?
inactive

What was the test verdict on O=c1[nH][nH]c2ccccc12 ?
inactive

What was the test verdict on CC(C)CCCCCCCOC(=O)c1ccc(C(=O)OCCCCCCCC(C)C)c(C(=O)OCCCCCCCC(C)C)c1 ?
active

What was the test verdict on COc1ccc2c(c1)c1c3n2CCN(C)C3=NCC1 ?
inactive

What was the test verdict on Cc1nc(N)nc(N)c1-c1ccc(Cl)c(Cl)c1 ?
inactive

What was the test verdict on O=C1N=C(O)CN1/N=C/c1ccc(-c2ccc([N+](=O)[O-])cc2)o1 ?
inactive

What was the test verdict on CCCCC1C(=O)N(c2ccccc2)N(c2ccc(O)cc2)C1=O (configuration not stated) ?
inactive

What was the test verdict on COc1ccc(/C=N/NC(=O)c2ccncc2)cc1OC ?
inactive

What was the test verdict on CCCCOC(=O)c1ccccc1C(=O)OCC(CC)CCCC (configuration not stated) ?
inactive

What was the test verdict on O=C1CCc2ccc(OCCCCN3CCN(c4cccc(Cl)c4Cl)CC3)cc2N1 ?
inactive

What was the test verdict on CCN1CCOCC1 ?
inactive

What was the test verdict on Nc1nc(-c2ccccc2)cs1 ?
inactive

What was the test verdict on Cc1cc(Cl)c(C)cc1Cl ?
inactive

What was the test verdict on COc1nc(C)nc(Cl)c1NC1=NCCN1 ?
inactive

What was the test verdict on S=C(S)NCCNC(=S)S ?
inactive

What was the test verdict on CC1=C(C/C=C(\C)CCC[C@H](C)CCC[C@H](C)CCCC(C)C)C(=O)c2ccccc2C1=O ?
inactive

What was the test verdict on CCOC(=O)C(C)Oc1ccc(Oc2nc3ccc(Cl)cc3o2)cc1 (configuration not stated) ?
inactive

What was the test verdict on Nc1ccn([C@@H]2O[C@H](CO)[C@@H](O)C2O)c(=O)n1 (some centres not stated) ?
inactive

What was the test verdict on N#CCCNCCC#N ?
inactive

---

- system_tested: D(2) dopamine receptor (Homo sapiens)
- assay_summary: Dopamine D2 receptor (DRD2) small molecule antagonists, cell-based qHTS assay (AID 1963595)
- experimental_context: HEK293-DRD2 cAMP HTRF antagonist mode; series mostly up to 92.4 µM
- Experimental: National Center for Advancing Translational Sciences [NCATS] Division of Preclinical Innovation [DPI] U.S. Environmental Protection Agency [EPA] National Institutes of Environmental Health Sciences [NIEHS] National Toxicology Program [NTP] […] DRD2-Hek293 cells were dispensed at 600 cells/3uL/well in 1536-well white plates using a Multidrop Dispenser. […] The fluorescence intensity in the plates was measured at 340 nm excitation and 665 & 620 nm emission by an Envision plate reader.
Inconclusive results are not listed. The source made the active and inactive calls. Calls come from the whole dose curve; as a rule, active = well fitted inhibition curve with a large enough effect in the signal ratio in the repeat runs, with a control signal flat; inconclusive = weak or mixed curves, or effect the other way; inactive = flat fitted curve, though single readings scatter; the % refers to the signal ratio.
Pick from active, inactive when you respond.

What was the test verdict on O=c1cc(-c2ccc(O)cc2)oc2cc(O)cc(O)c12 ?
inactive

What was the test verdict on COC(=O)c1nc(Cl)c(Cl)nc1N ?
inactive

What was the test verdict on NC(CCC(=O)O)C(=O)O (configuration not stated) ?
inactive

What was the test verdict on CCCCCCCCCCC1CO1 (configuration not stated) ?
inactive

What was the test verdict on Brc1ccccc1-c1ccccc1 ?
inactive

What was the test verdict on O=C(O)[C@@H]1CSCN1 ?
inactive

What was the test verdict on S=C(S)NCCNC(=S)S ?
inactive

What was the test verdict on Cc1ccccn1 ?
inactive

What was the test verdict on CC(=O)O[Si](C)(OC(C)=O)OC(C)=O ?
inactive

What was the test verdict on C=CC(=O)OCCCCCCOC(=O)C=C ?
inactive

What was the test verdict on C=C(C)[C@@H]1CC=C(C)C(=O)C1 ?
inactive

What was the test verdict on Cc1cc2c(cc1CC(=O)c1sccc1S(=O)(=O)Nc1onc(C)c1Cl)OCO2 ?
inactive

What was the test verdict on Cc1c(N)c(=O)n(-c2ccccc2)n1C ?
inactive

What was the test verdict on O=C1NC2CCCCN2C12CCN(CCCN1c3ccccc3CCc3ccc(Cl)cc31)CC2 (configuration not stated) ?
active

What was the test verdict on C=CCN1C[C@H](C(=O)N(CCCN(C)C)C(=O)NCC)C[C@@H]2c3cccc4[nH]cc(c34)C[C@H]21 ?
inactive

What was the test verdict on CCCCCC[C@@H](O)C/C=C\CCCCCCCC(=O)OC ?
inactive

What was the test verdict on CC(O)(c1ccc(Cl)cc1)c1ccc(Cl)cc1 ?
inactive

What was the test verdict on O=C(OCCOCCOCCOC(=O)c1ccccc1)c1ccccc1 ?
inactive

What was the test verdict on Cc1[nH]cnc1C[C@H]1CCc2c(C)c3ccccc3n2C1=O ?
active

What was the test verdict on CCCCOC(=O)c1ccccc1 ?
inactive

What was the test verdict on CCCC[N+](C)(CCCC)CCCC ?
inactive

What was the test verdict on Fc1ccc(C(c2ccc(F)cc2)N2CCN(C/C=C/c3ccccc3)CC2)cc1 ?
active

What was the test verdict on CCCCCCCCCCCCCCCC(=O)OC/C=C(C)/C=C/C=C(C)/C=C/C1=C(C)CCCC1(C)C ?
inactive

What was the test verdict on Cc1ccc(O)c(C(=O)c2ccccc2)c1 ?
inactive

What was the test verdict on Oc1ccccc1-c1nnco1 ?
inactive

What was the test verdict on C=Cc1ccc(OC(C)=O)cc1 ?
inactive

What was the test verdict on CC1(C)[C@H](C(=O)O)N2C(=O)C[C@H]2S1(=O)=O ?
inactive
